system: K-562 leukemia; test: NCI tumour cell line growth inhibition, 48 h

>  <COMPOUND>
CCOC(=O)Cc1cc(=O)oc2cc(O)ccc12

>  <TEST TARGET>
K-562 leukemia

>  <TGI>
> 100 µM

$$$$
>  <COMPOUND>
C=CCSSC1N=CNc2nc[nH]c21 (stereo not given)

>  <TEST TARGET>
K-562 leukemia

>  <TGI>
> 26 µM

$$$$
>  <COMPOUND>
Clc1ccc(Cl)c(NNc2cc(Cl)ccc2Cl)c1

>  <TEST TARGET>
K-562 leukemia

>  <TGI>
> 10 µM

$$$$
>  <COMPOUND>
COc1cc(/C=C2\N=C(c3ccccc3)N(c3cc4cc(Sc5ccccc5)ccc4[nH]3)C2=O)cc(OC)c1OC

>  <TEST TARGET>
K-562 leukemia

>  <TGI>
17.9 µM

$$$$
>  <COMPOUND>
O=C1OC(c2ccc(O)c(F)c2)(c2ccc(O)c(F)c2)c2cccc3cccc1c23

>  <TEST TARGET>
K-562 leukemia

>  <TGI>
> 25 µM

$$$$
>  <COMPOUND>
C=C1CC(OC)(C(OC)C(=O)N(C)[C@H]2OCO[C@H]3C2O[C@H](C[C@@H](COC)OC)C(C)(C)C3OC)O[C@H](C)[C@@H]1C (stereo not given in full)

>  <TEST TARGET>
K-562 leukemia

>  <TGI>
40.9 µM

$$$$
>  <COMPOUND>
O=C(O)CCC(N=C(C(=NC(CCC(=O)O)C(=O)O)c1ccccc1)c1ccccc1)C(=O)O (stereo not given)

>  <TEST TARGET>
K-562 leukemia

>  <TGI>
> 100 µM

$$$$
>  <COMPOUND>
C[C@]12CC[C@@H]3c4ccc(O)cc4CC[C@H]3[C@@H]1CC[C@@H]2NS(=O)(=O)c1cccc(OC(F)(F)F)c1

>  <TEST TARGET>
K-562 leukemia

>  <TGI>
10.8 µM

$$$$
>  <COMPOUND>
CC1OC2=N[C@@H]1C(=O)N[C@@H](Cc1ccccc1)C1=N[C@H](C(=O)N[C@@H](Cc3ccccc3)C3=N[C@H](C(=O)N[C@H]2Cc2ccccc2)C(C)O3)C(C)O1 (stereo not given in full)

>  <TEST TARGET>
K-562 leukemia

>  <TGI>
68.7 µM

$$$$
>  <COMPOUND>
CCOC(=O)Nc1nc2cc(OC)c(OC)c(OC)c2s1

>  <TEST TARGET>
K-562 leukemia

>  <TGI>
> 100 µM

$$$$
>  <COMPOUND>
C/C(=C\CO)CC/C=C(\C)CNc1ccccc1

>  <TEST TARGET>
K-562 leukemia

>  <TGI>
> 100 µM

$$$$
>  <COMPOUND>
CCc1ccccc1N1C(=O)C(=O)C(c2nc3ccccc3s2)C(=O)C1=O

>  <TEST TARGET>
K-562 leukemia

>  <TGI>
> 100 µM

$$$$
>  <COMPOUND>
CC(C)=C1C(=O)c2c(Cl)sc(Cl)c2C1=O

>  <TEST TARGET>
K-562 leukemia

>  <TGI>
> 100 µM

$$$$
>  <COMPOUND>
COc1cc2c3c(c1O)N=NC=3CCN=2

>  <TEST TARGET>
K-562 leukemia

>  <TGI>
18.3 µM

$$$$
>  <COMPOUND>
CC12CCC3(C1)[C@H](CC2=O)C[C@@H](OC(=O)c1ccccc1)C1C(C)(CO)CCC[C@@]13C (stereo not given in full)

>  <TEST TARGET>
K-562 leukemia

>  <TGI>
> 100 µM

$$$$
>  <COMPOUND>
Nc1ccc(N)c2c1C(=O)c1ccccc1C2=O

>  <TEST TARGET>
K-562 leukemia

>  <TGI>
> 100 µM

$$$$
>  <COMPOUND>
O=C1C=CC(=O)C(c2cc(-c3ccc(Cl)cc3)nn2-c2ccccc2)=C1

>  <TEST TARGET>
K-562 leukemia

>  <TGI>
> 100 µM

$$$$
>  <COMPOUND>
COc1ccc(/C=C2/SC(c3ccccc3)N(NC(=O)CCCCCCCCC(=O)NN3C(=O)/C(=C\c4ccc(OC)c(OC)c4)SC3c3ccccc3)C2=O)cc1OC (stereo not given)

>  <TEST TARGET>
K-562 leukemia

>  <TGI>
62 µM

$$$$
>  <COMPOUND>
O=C1Nc2ccc(Br)cc2C1=Nc1ccc2c(c1)OCO2

>  <TEST TARGET>
K-562 leukemia

>  <TGI>
61.6 µM

$$$$
>  <COMPOUND>
CNS(=O)(=O)NN(C)S(=O)(=O)c1ccc(OC)cc1

>  <TEST TARGET>
K-562 leukemia

>  <TGI>
> 100 µM

$$$$

* * *

test system: SF-268 CNS; experiment: NCI tumour cell line growth inhibition, 48 h
Where a SMILES comes first, the peptide text is derived from it. [ ]: non-standard residue; d: D form. The star is where a group is joined. Bn2Val = CC(C)[C@@H](C(=O)*)N(Cc1ccccc1)Cc1ccccc1; NH(4-F-benzyl) = Fc1ccc(CN*)cc1; NMeV = CN[C@H](C(=O)O)C(C)C; dNMeA = CN[C@H](C)C(=O)O

>  <COMPOUND>
Cc1ccc(-c2c3c(nn2-c2ccc(S(=O)(=O)NC(=O)Nc4ccccc4)cc2)-c2ccccc2C3)cc1

>  <UNIT NAME>
µM

>  <REL>
=

>  <TGI>
55.7

$$$$
>  <COMPOUND>
COc1ccccc1NCc1nnc(CCCCCCCCc2nnc(CNc3ccccc3OC)o2)o1

>  <UNIT NAME>
µM

>  <REL>
>

>  <TGI>
100

$$$$
>  <COMPOUND>
COC(=O)c1ccc2[nH]c(O)c(C(=Nc3ccc(N(C)C(=O)CN4CCN(C)CC4)cc3)c3ccc(OC)cc3)c2c1

>  <UNIT NAME>
µM

>  <REL>
=

>  <TGI>
13.6

$$$$
>  <COMPOUND>
CC(C)[C@H](NC(=O)[C@H](C(C)C)N(Cc1ccccc1)Cc1ccccc1)C(=O)N(C)[C@H](C(=O)N1CCC[C@H]1C(=O)N(C)[C@H](C)C(=O)NCc1ccc(F)cc1)C(C)C (Bn2Val-V[NMeV]P[dNMeA]-{NH(4-F-benzyl)})

>  <UNIT NAME>
µM

>  <REL>
=

>  <TGI>
10

$$$$
>  <COMPOUND>
COC(=O)C1=C(OC(=O)/C(=C/c2ccccc2)c2ccccc2)C(C(=O)OC)[C@@]2(O)[C@@H](C(=O)OC)[C@H](C)C[C@@H]1[C@@H]2C(=O)OC (stereo partly drawn)

>  <UNIT NAME>
µM

>  <REL>
>

>  <TGI>
100

$$$$
>  <COMPOUND>
CC(C)C(O)(C(=O)OCN1C(=O)C2C3C=CC(C2C1=O)C1C2C(=O)N(COC(=O)C(O)(C(C)C)C(C)O)C(=O)C2C31)C(C)O (stereo not drawn)

>  <UNIT NAME>
µM

>  <REL>
>

>  <TGI>
100

$$$$
>  <COMPOUND>
C=C(C(=O)OC1C(CO)OC(OCC2CC[C@@H]3C[C@]4(OC(=O)C3=C)C(C)=CC(=O)C24)C(O)C1O)[C@@H]1CCC(CO)C2C(=O)C=C(C)[C@@]2(O)C1 (stereo partly drawn)

>  <UNIT NAME>
µM

>  <REL>
=

>  <TGI>
16.1

$$$$
>  <COMPOUND>
O=C(Nc1ccc(OCc2nnc(-c3ccc(Cl)cc3)o2)c(F)c1)Nc1ccc(Cl)c(Cl)c1

>  <UNIT NAME>
µM

>  <REL>
=

>  <TGI>
35.8

$$$$
>  <COMPOUND>
COC(=O)/C=C1/SC(=Nc2ccc(C(F)(F)F)cc2)N(CCc2c[nH]c3ccc(O)cc23)C1=O

>  <UNIT NAME>
µM

>  <REL>
=

>  <TGI>
5.36

$$$$
>  <COMPOUND>
COC(=O)C(=Cc1ccccc1[N+](=O)[O-])C(=O)OC

>  <UNIT NAME>
µM

>  <REL>
=

>  <TGI>
12.7

$$$$
>  <COMPOUND>
CCCCSC(=CC(=O)c1cccc(C(=O)C=C(SCCCC)SCCCC)n1)SCCCC

>  <UNIT NAME>
µM

>  <REL>
>

>  <TGI>
100

$$$$
>  <COMPOUND>
CCc1nc(N)nc(N)c1-c1ccc2c(c1)nnn2CCc1ccccc1

>  <UNIT NAME>
µM

>  <REL>
>

>  <TGI>
64.2

$$$$
>  <COMPOUND>
O=c1nc2n(c3nsnc13)CCO2

>  <UNIT NAME>
µM

>  <REL>
>

>  <TGI>
100

$$$$
>  <COMPOUND>
CC#CC#Cc1cccc(=O)o1

>  <UNIT NAME>
µM

>  <REL>
=

>  <TGI>
18.1

$$$$
>  <COMPOUND>
CCOC(=O)C1=NC(c2ccccc2)(c2ccccc2)OC1=C(Cl)Cl

>  <UNIT NAME>
µM

>  <REL>
>

>  <TGI>
100

$$$$
>  <COMPOUND>
CCN(CC)S(=O)(=O)c1ccc2nc(NC(=O)OC)[nH]c2c1

>  <UNIT NAME>
µM

>  <REL>
>

>  <TGI>
100

$$$$
>  <COMPOUND>
COc1ccc(C2c3c(n(C)c(=O)n(C)c3=O)OC(N(C)C)(N(C)C)C2(F)F)cc1 (stereo not drawn)

>  <UNIT NAME>
µM

>  <REL>
>

>  <TGI>
100

$$$$
>  <COMPOUND>
Cc1cc(CN2CCCCC2)c(O)c(CN2CCCCC2)c1

>  <UNIT NAME>
µM

>  <REL>
>

>  <TGI>
100

$$$$

FYI, the data here is from PubChem BioAssay (NCI).
